system.name: Geranylgeranyl transferase type-1 subunit beta (Homo sapiens)
Sequence (P53609 whole entry): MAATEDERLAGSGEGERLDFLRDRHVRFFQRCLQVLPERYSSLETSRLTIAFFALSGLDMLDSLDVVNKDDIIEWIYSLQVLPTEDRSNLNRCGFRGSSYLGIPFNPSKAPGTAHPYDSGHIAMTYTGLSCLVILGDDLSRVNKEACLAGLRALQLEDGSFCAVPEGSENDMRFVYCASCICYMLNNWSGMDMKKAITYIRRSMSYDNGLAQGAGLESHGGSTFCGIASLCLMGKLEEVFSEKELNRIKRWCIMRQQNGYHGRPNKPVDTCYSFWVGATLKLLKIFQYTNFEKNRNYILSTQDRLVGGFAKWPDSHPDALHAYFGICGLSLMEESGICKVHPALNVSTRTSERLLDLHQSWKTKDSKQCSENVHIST
test.name: Inhibitory concentration of geranylgeranyl-protein transferase type I

compound.smiles	system.name	IC50
N#Cc1ccc(Cn2cncc2CN[C@H]2CCN(C(=O)c3cccnc3)C2)cc1	Geranylgeranyl transferase type-1 subunit beta (Homo sapiens)	> 50 µM
N#Cc1ccc(Cn2cncc2CN(CCCCc2ccccc2)[C@H]2CCN(Cc3ccccc3)C2=O)cc1	Geranylgeranyl transferase type-1 subunit beta (Homo sapiens)	4.6 µM
N#Cc1ccc(Cn2cncc2CN(Cc2ccccc2)[C@H]2CCN(Cc3ccccc3)C2=O)cc1	Geranylgeranyl transferase type-1 subunit beta (Homo sapiens)	20 µM
N#Cc1ccc(Cn2cncc2CN[C@H]2CCN(C(=O)c3cccnc3S)C2)cc1	Geranylgeranyl transferase type-1 subunit beta (Homo sapiens)	> 50 µM
N#Cc1ccc(Cn2cncc2CN[C@@H]2CCN(CCc3ccccc3)C2=O)cc1	Geranylgeranyl transferase type-1 subunit beta (Homo sapiens)	31 µM
N#Cc1ccc(Cn2cncc2CN[C@H]2CCN(c3cccc(Cl)c3)C2=O)cc1	Geranylgeranyl transferase type-1 subunit beta (Homo sapiens)	6.5 µM
N#Cc1ccc(Cn2cncc2CN(CCCc2ccccc2)[C@H]2CCN(Cc3ccccc3)C2=O)cc1	Geranylgeranyl transferase type-1 subunit beta (Homo sapiens)	12 µM
N#Cc1ccc(Cn2cncc2CCN[C@@H]2CCN(c3ccccc3)C2=O)cc1	Geranylgeranyl transferase type-1 subunit beta (Homo sapiens)	16 µM

###

system.name: Geranylgeranyl transferase type-1 subunit beta (Homo sapiens)
test.name: Inhibitory concentration of geranylgeranyl-protein transferase type I
Recorded IC50 by entry

compound.smiles	unit.label	inequality.operator	IC50
CC(C)(C)OC(=O)NCCCN(Cc1cncn1Cc1ccc(C#N)cc1)[C@H]1CCN(Cc2cccc(Cl)c2)C1=O	µM	=	2.7
N#Cc1ccc(Cn2cncc2CCN[C@@H]2CCN(Cc3ccccc3)C2=O)cc1	µM	=	11
N#Cc1ccc(Cn2cncc2CN[C@@H]2CCN(c3ccccc3)C2=O)cc1	µM	=	41
N#Cc1ccc(Cn2cncc2CCN[C@H]2CCN(c3ccccc3)C2=O)cc1	µM	=	14
N#Cc1ccc(Cn2cncc2CN[C@H]2CCN(C(=O)c3cccc4ccccc34)C2)cc1	µM	=	0.88
CC(C)(C)OC(=O)NCCCN(Cc1cncn1Cc1ccc(C#N)cc1)[C@H]1CCN(Cc2ccccc2)C1=O	µM	=	3.6
N#Cc1ccc(Cn2cncc2CCN[C@H]2CCN(CCc3ccccc3)C2=O)cc1	µM	=	2.8
N#Cc1ccc(Cn2cncc2CN[C@H]2CCN(C(=O)c3cccc(Cl)c3)C2)cc1	µM	=	11
N#Cc1ccc(Cn2cncc2CN(CCN2CCOCC2)[C@H]2CCN(Cc3cccc(Cl)c3)C2=O)cc1	µM	=	12
N#Cc1ccc(Cn2cncc2CN[C@H]2CCN(c3ccncc3)C2=O)cc1	µM	>	20
N#Cc1ccc(Cn2cncc2CN[C@H]2CCN(c3ccccc3)C2=O)cc1	µM	=	46
N#Cc1ccc(Cn2cncc2CN(CCc2ccccc2)[C@H]2CCN(Cc3ccccc3)C2=O)cc1	µM	=	15
N#Cc1ccc(Cn2cncc2CN[C@H]2CCN(c3ccccn3)C2=O)cc1	µM	=	36
N#Cc1ccc(Cn2cncc2CN[C@H]2CCN(c3cccnc3)C2=O)cc1	µM	>	20
N#Cc1ccc(Cn2cncc2CN(CCCc2ccccc2)[C@H]2CCN(Cc3cccc(Cl)c3)C2=O)cc1	µM	=	6.5
N#Cc1ccc(Cn2cncc2CN[C@H]2CCN(C(=O)c3cncc(Br)c3)C2)cc1	µM	=	41
N#Cc1ccc(Cn2cncc2CN(CCN2CCNCC2)[C@H]2CCN(Cc3cccc(Cl)c3)C2=O)cc1	µM	>	50
N#Cc1ccc(Cn2cncc2CN[C@H]2CCN(C(=O)c3ccc[nH]c3=O)C2)cc1	µM	>	50
N#Cc1ccc(Cn2cncc2CN[C@H]2CCN(C(=O)c3ccc(Cl)cc3)C2)cc1	µM	=	19
Cc1ncccc1C(=O)N1CC[C@H](NCc2cncn2Cc2ccc(C#N)cc2)C1	µM	>	50

###

system.name: Protein farnesyltransferase (Homo sapiens, UniProt P49354+P49356)
test.name: In vitro inhibition of farnesyl transferase using purified recombinant human enzyme
hey, just use TRUE if measured IC50 is less than 40 nM, otherwise FALSE

compound.smiles	answer.label
Cc1ncccc1C(=O)N1CC[C@H](NCc2cncn2Cc2ccc(C#N)cc2)C1	FALSE
N#Cc1ccc(Cn2cncc2CN[C@H]2CCN(c3ccc(Cl)cc3)C2=O)cc1	TRUE
N#Cc1ccc(Cn2cncc2CN[C@@H]2CCN(c3ccccc3)C2=O)cc1	FALSE
CC(C)(C)OC(=O)NCCCN(Cc1cncn1Cc1ccc(C#N)cc1)[C@H]1CCN(Cc2cccc(Cl)c2)C1=O	TRUE
N#Cc1ccc(Cn2cncc2CN[C@H]2CCN(C(=O)c3cccc4ccccc34)C2)cc1	TRUE
N#Cc1ccc(Cn2cncc2CN[C@H]2CCN(C(=O)c3cccnc3)C2)cc1	FALSE
N#Cc1ccc(Cn2cncc2CN[C@H]2CCN(C(=O)c3cccnc3N)C2)cc1	FALSE
N#Cc1ccc(Cn2cncc2CN[C@@H]2CCN(CCc3ccccc3)C2=O)cc1	FALSE
N#Cc1ccc(Cn2cncc2CCN[C@H]2CCN(c3ccccc3)C2=O)cc1	FALSE
N#Cc1ccc(Cn2cncc2CCN[C@H]2CCN(CCc3ccccc3)C2=O)cc1	FALSE
N#Cc1ccc(Cn2cncc2CN(CCCCc2ccccc2)[C@H]2CCN(Cc3ccccc3)C2=O)cc1	FALSE
N#Cc1ccc(Cn2cncc2CCN[C@@H]2CCN(CCc3ccccc3)C2=O)cc1	FALSE
CCCN(Cc1cncn1Cc1ccc(C#N)cc1)[C@H]1CCN(Cc2ccccc2)C1=O	FALSE
N#Cc1ccc(Cn2cncc2CN[C@H]2CCN(C(=O)c3ccccc3)C2)cc1	FALSE
N#Cc1ccc(Cn2cncc2CN[C@H]2CCN(C(=O)c3cccc(Cl)c3)C2)cc1	TRUE
N#Cc1ccc(Cn2cncc2CN(CCCN)[C@H]2CCN(Cc3cccc(Cl)c3)C2=O)cc1	TRUE
N#Cc1ccc(Cn2cncc2CN[C@H]2CCN(c3cccnc3)C2=O)cc1	FALSE

###

system.name: Voltage-gated inwardly rectifying potassium channel KCNH2 (Homo sapiens)
Sequence (Q12809 whole entry): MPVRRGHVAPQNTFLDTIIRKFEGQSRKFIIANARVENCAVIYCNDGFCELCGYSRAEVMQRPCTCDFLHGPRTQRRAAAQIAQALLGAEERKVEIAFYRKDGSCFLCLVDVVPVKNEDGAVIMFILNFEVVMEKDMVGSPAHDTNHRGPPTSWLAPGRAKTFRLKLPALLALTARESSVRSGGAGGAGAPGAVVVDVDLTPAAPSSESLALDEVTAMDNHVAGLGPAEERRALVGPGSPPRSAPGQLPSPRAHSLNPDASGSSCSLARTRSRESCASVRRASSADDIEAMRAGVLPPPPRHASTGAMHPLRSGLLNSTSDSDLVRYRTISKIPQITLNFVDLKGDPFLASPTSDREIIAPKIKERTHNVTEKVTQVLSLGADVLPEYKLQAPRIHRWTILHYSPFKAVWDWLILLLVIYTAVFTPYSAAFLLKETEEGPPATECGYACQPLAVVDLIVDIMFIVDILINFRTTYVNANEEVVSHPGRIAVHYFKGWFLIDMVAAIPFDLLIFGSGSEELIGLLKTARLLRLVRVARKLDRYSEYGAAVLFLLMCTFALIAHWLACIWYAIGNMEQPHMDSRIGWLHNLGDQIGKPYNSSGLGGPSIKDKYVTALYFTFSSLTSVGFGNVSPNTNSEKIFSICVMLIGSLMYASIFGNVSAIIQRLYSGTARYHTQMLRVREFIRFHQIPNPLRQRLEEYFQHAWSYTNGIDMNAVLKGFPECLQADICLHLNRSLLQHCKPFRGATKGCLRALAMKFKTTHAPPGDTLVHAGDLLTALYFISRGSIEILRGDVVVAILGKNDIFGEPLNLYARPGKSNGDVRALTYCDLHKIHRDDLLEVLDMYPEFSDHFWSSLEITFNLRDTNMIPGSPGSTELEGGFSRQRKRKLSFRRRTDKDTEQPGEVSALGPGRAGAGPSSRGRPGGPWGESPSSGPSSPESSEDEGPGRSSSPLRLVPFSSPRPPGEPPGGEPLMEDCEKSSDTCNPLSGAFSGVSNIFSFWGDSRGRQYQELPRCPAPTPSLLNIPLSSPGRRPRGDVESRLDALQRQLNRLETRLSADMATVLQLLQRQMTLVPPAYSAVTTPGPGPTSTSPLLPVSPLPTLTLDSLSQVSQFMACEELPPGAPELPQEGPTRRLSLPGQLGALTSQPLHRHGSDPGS
pIC50: −log10 of the molar value.
# cutoff 5 applies to pIC50; >= gives rule met, < gives rule not met

compound.smiles	answer.label
Cc1ncccc1C(=O)N1CC[C@H](NCc2cncn2Cc2ccc(C#N)cc2)C1	rule not met
N#Cc1ccc(Cn2cncc2CN[C@H]2CCN(C(=O)c3cncc(Br)c3)C2)cc1	rule met
N#Cc1ccc(Cn2cncc2CN(CCCN)[C@H]2CCN(Cc3cccc(Cl)c3)C2=O)cc1	rule met
CCSc1ncccc1C(=O)N1CC[C@H](NCc2cncn2Cc2ccc(C#N)cc2)C1	rule not met
N#Cc1ccc(Cn2cncc2CN[C@H]2CCN(C(=O)c3cccc(Cl)c3)C2)cc1	rule met
CC(C)(C)OC(=O)NCCCN(Cc1cncn1Cc1ccc(C#N)cc1)[C@H]1CCN(Cc2cccc(Cl)c2)C1=O	rule met
N#Cc1ccc(Cn2cncc2CN[C@H]2CCN(C(=O)c3cccnc3N)C2)cc1	rule not met

###

system.name: Protein farnesyltransferase (Homo sapiens, UniProt P49354+P49356)
test.name: In vitro inhibition of farnesyl transferase using purified recombinant human enzyme

compound.smiles	unit.label	IC50
N#Cc1ccc(Cn2cncc2CN[C@H]2CCN(c3ccccn3)C2=O)cc1	nM	370
N#Cc1ccc(Cn2cncc2CCN[C@@H]2CCN(c3ccccc3)C2=O)cc1	nM	120
N#Cc1ccc(Cn2cncc2CN[C@H]2CCN(c3ccccc3)C2=O)cc1	nM	74
N#Cc1ccc(Cn2cncc2CN(CCc2ccccc2)[C@H]2CCN(Cc3ccccc3)C2=O)cc1	nM	51
N#Cc1ccc(Cn2cncc2CN[C@H]2CCN(C(=O)c3cncc(Br)c3)C2)cc1	nM	43
N#Cc1ccc(Cn2cncc2CN[C@H]2CCN(CCc3ccccc3)C2=O)cc1	nM	230
N#Cc1ccc(Cn2cncc2CCN[C@@H]2CCN(Cc3ccccc3)C2=O)cc1	nM	250
N#Cc1ccc(Cn2cncc2CN[C@H]2CCN(Cc3ccccc3Cl)C2=O)cc1	nM	5.2
N#Cc1ccc(Cn2cncc2CN[C@H]2CCN(c3ccncc3)C2=O)cc1	nM	43
N#Cc1ccc(Cn2cncc2CCN[C@H]2CCN(Cc3ccccc3)C2=O)cc1	nM	270
COc1ncccc1C(=O)N1CC[C@H](NCc2cncn2Cc2ccc(C#N)cc2)C1	nM	150
N#Cc1ccc(Cn2cncc2CN[C@H]2CCN(c3ccccc3Cl)C2=O)cc1	nM	1.5
CCSc1ncccc1C(=O)N1CC[C@H](NCc2cncn2Cc2ccc(C#N)cc2)C1	nM	4.8
N#Cc1ccc(Cn2cncc2CN[C@H]2CCN(C(=O)c3cccnc3S)C2)cc1	nM	2900
N#Cc1ccc(Cn2cncc2CN[C@H]2CCN(C(=O)c3ccc(Cl)cc3)C2)cc1	nM	89
N#Cc1ccc(Cn2cncc2CN[C@H]2CCN(c3cccc(Cl)c3)C2=O)cc1	nM	8.4
N#Cc1ccc(Cn2cncc2CN[C@H]2CCN(C(=O)c3ccccc3Cl)C2)cc1	nM	65
N#Cc1ccc(Cn2cncc2CN[C@H]2CCN(C(=O)c3ccc[nH]c3=O)C2)cc1	nM	6800
N#Cc1ccc(Cn2cncc2CN(Cc2ccccc2)[C@H]2CCN(Cc3ccccc3)C2=O)cc1	nM	67
N#Cc1ccc(Cn2cncc2CN[C@H]2CCN(Cc3ccc(Cl)cc3)C2=O)cc1	nM	25

Source: ChEMBL document CHEMBL1134579
